FYI, the data here is from paper PMC10786891.

- measured_on: T1, EsCas13d, nuclease-dead (Eubacterium siraeum, UniProt B0MS50, R295A;H300A;R849A;H854A)
- T1 sequence: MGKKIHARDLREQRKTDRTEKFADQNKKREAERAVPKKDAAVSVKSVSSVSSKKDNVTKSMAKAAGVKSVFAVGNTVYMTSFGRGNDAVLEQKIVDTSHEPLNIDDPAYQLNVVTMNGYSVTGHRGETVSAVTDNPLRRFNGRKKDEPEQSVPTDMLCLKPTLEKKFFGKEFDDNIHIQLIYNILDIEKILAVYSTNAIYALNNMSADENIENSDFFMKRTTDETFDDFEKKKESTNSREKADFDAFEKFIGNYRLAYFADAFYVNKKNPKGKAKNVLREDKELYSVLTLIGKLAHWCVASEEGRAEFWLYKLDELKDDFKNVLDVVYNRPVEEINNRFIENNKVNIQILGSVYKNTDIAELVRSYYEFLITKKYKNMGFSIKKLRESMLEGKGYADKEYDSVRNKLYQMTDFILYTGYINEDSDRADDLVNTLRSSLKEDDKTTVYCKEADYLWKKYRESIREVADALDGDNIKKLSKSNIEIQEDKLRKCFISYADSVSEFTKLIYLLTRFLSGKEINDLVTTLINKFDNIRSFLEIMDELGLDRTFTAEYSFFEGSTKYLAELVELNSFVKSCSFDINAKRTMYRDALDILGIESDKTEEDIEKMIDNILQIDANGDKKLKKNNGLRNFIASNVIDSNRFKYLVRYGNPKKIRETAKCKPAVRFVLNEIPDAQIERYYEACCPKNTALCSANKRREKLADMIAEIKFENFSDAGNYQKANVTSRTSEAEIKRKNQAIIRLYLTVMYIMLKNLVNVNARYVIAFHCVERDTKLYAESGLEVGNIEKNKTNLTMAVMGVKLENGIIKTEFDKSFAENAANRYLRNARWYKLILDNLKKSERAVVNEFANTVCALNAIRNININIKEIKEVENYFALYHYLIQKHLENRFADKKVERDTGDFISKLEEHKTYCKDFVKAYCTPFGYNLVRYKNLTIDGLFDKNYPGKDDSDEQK
- protocol_description: crRNA (strand 1, pre-loaded); Mg2+; 40 mM Tris-HCl pH 7.5, 150 mM NaCl, 6 mM MgCl2, 1 mM DTT, 0.1% Tween-20, 0.2 mg/ml BSA; 25 C; 10 min per concentration, then washed
- assay_conditions: tags: His6-TwinStrep-SUMO cleaved; N-terminal SNAP kept (SNAP-Surface 488); label: 3' end held by stalled T7 RNA polymerase
For each entry below, report its pKd value.
Numbers only, as −log10 of the molar value.

target 1 MT 5'PFS UAA 3'PFS AAU (mixed) RNA 1: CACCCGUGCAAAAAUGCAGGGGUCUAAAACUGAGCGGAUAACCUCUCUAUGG RNA 2: GGGAAUGGAUCCACAUCUACGAAUUCUAACCAUAGAGAGGUUAUCCGCUCAAAUAGAUCGGAAGAGCACACGU | 7.26

Req: What does the record list as pKd for target 1 insC 3' of 11,insG 3' of 8 (mixed) RNA 1: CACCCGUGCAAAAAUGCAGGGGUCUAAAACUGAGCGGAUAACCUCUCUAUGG RNA 2: GGGAAUGGAUCCACAUCUACGAAUUCGUACCAUAGAGAGGUCUAUGCCGCUCACCGAGAUCGGAAGAGCACACGU ?
Resp: 7.19
